Attribution: ChEMBL document CHEMBL1125918

Recorded measurements of IC50, one per entry
species on record: Rattus norvegicus; assay: Compound was evaluated in vitro, for the ability to inhibit [3H]- dopamine uptake into synaptosomes (prepared from rat striatal tissues).; format: functional; conditions: Brain
Numbers only; they are read as µM.

Some compounds with known IC50 results, for comparison:
COMPOUND	MEASUREMENT
COC(=O)C1C2CC[C@H](C[C@@H]1OC(=O)Nc1cccc(N)c1)N2C (stereo partly specified)	23.1
COC(=O)C1C2CC[C@H](C[C@@H]1OC(=O)Nc1ccccc1)N2C (stereo partly specified)	52.6
COC(=O)C1C2CC[C@H](C[C@@H]1OC(=O)Nc1cccc([N+](=O)[O-])c1)N2C (stereo partly specified)	0.178
COC(=O)[C@H]1[C@@H](OC(=O)c2ccccc2)C[C@@H]2CC[C@H]1N2C	0.213

Task: Can you look up the measured IC50 of COC(=O)C1C2CC[C@H](C[C@@H]1OC(=O)Nc1ccc([N+](=O)[O-])cc1)N2C (stereo partly specified) for me?
Result: 5.7
